Cited source: ChEMBL document CHEMBL1134985

Listed compounds paired with reported IC50
# subject.of.test: Cathepsin B (Homo sapiens, UniProt P07858)
measured.attribute: IC50

{"columns": ["molecule", "measured.attribute", "reported.value"],
 "data": [
  ["CC(C)[C@H](NC(=O)OCc1ccccc1)C(=O)N[C@@H]1C(=O)N2CCO[C@H]12", "IC50", "30 µM"],
  ["O=C(N[C@@H](Cc1ccccc1)C(=O)N[C@@H]1C(=O)N2CCO[C@H]12)OCc1ccccc1", "IC50", "1.76 µM"],
  ["O=C(N[C@H](C(=O)N[C@@H]1C(=O)N2CCO[C@H]12)c1ccccc1)OCc1ccccc1", "IC50", "> 50 µM"]
]}

* * *

# subject.of.test: Procathepsin L (Rattus norvegicus, UniProt P07154)
# Sequence (P07154 whole entry): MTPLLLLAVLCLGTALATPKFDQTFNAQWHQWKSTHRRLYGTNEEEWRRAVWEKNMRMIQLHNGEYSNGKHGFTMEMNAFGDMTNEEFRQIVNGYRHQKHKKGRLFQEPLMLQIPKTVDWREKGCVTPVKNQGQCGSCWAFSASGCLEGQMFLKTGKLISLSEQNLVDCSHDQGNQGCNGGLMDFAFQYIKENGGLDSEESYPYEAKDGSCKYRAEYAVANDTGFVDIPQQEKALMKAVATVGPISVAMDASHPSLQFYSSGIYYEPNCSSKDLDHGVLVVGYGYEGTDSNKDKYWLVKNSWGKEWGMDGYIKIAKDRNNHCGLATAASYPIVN
# protocol.text: In vitro Inhibitory activity against Cathepsin L cysteine protease by using Cbz-Phe-Arg-AMC
pIC50: −log10 of the molar value.
Listed molecules paired with reported pIC50
measured.attribute: pIC50

{"columns": ["molecule", "reported.value"],
 "data": [
  ["O=C(N[C@@H](Cc1ccccc1)C(=O)N[C@@H]1C(=O)N2CCO[C@H]12)OCc1ccccc1", 7.07],
  ["O=C(N[C@@H](Cc1ccccc1)C(=O)N[C@@H]1C(=O)N2CCO[C@@H]12)OCc1ccccc1", 8.40],
  ["CC(C)[C@H](NC(=O)OCc1ccccc1)C(=O)N[C@@H]1C(=O)N2CCO[C@H]12", 6.22],
  ["C[C@H](NC(=O)OCc1ccccc1)C(=O)N[C@@H]1C(=O)N2CCO[C@H]12", 4.42]
]}
